Tested on: Nanoluciferase (engineered Oplophorus gracilirostris luciferase)
Experiment: Primary Nanoluciferase (NLuc) qHTS assay for identification of artifact compounds. (AID 1845222);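 further: NLuc secreted into diluted conditioned medium of S16 cells; 0% = DMSO and -100% = no enzyme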
Details: NLuc-conditioned medium, Nano-Glo luminescence, 5 min; series mostly up to 54.1 µM
Calls of active or inactive are those of the source. The call rests on the fitted dose curve; in most records, active means well fitted inhibition curve with a large enough effect; inconclusive means small, poorly fitted or top-dose-only effect; inactive means flat fitted curve, though single readings scatter.
metric.name: activity, negative = inhibition

Q: Param request: activity, negative = inhibition | system Nanoluciferase (engineered Oplophorus gracilirostris luciferase) | item CC1(C)CC[C@]23CO[C@@]4(CCC5[C@@]6(C)CC[C@H](O[C@@H]7OC[C@H](O[C@@H]8O[C@H](CO)[C@@H](O)[C@H](O)[C@H]8O[C@@H]8OC[C@@H](O)[C@H](O)[C@H]8O)[C@H](O)[C@H]7O[C@@H]7O[C@H](CO)[C@@H](O)[C@H](O)[C@H]7O)[C@@](C)(CO)C6CC[C@@]5(C)[C@]4(C)C[C@H]2O)[C@@H]3C1 (some centres not stated)
Result: 3.72% [at 11.6 µM] (inactive)
